The reported numbers originate from patent US20250250357A1.

- Measured target: T1, human MSLN-R1-his protein (human, UniProt Q13421 296-390)
- T1 construct: Self-made in HEK293E cells; also called human MSLN-R1 protein; hMSLN-R1-his; not shown: His tag
- T1 chain: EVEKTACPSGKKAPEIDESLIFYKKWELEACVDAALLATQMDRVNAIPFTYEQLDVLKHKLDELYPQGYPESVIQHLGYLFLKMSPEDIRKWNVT
- Test: ELISA on coated antigen, antibody 10 nM
Property measured: OD450
Answer format reminder: number followed by unit.

// solved cases for OD450 follow
S009-F3.74.20 (antibody, human IgG1, kappa, V domains shown, Human-murine chimeric antibody: murine VH/VL on human IgG1 heavy and kappa light constant regions) VH: RVQLQQSGAELVRPGASVTLSCKASGYTFTDSEMHWVKQTPVHGLEWIGAIDPEIDGTAYNQNFRDKAILTADKSSSTAYMELRSLTSEDSAVYYCTTYFGSGYGYFDVWGTGTTVTVSS VL: DVVMTQTPLSLSVSLGDQASISCRSSQSLVYSNGNTYLHWFLQKPGQSPKLLIYKVSNRFSGVPDRFSGSGSGTDFTLKINRVEAEDLGVYFCSQSTHIPFTFGAGTKLELKR ... 0.08 OD450
S009-F3.7.3 (antibody, human IgG1, kappa, V domains shown, Human-murine chimeric antibody: murine VH/VL on human IgG1 heavy and kappa light constant regions) VH: EVNFEESGGGLVQPGGSMKLSCVASGFTFSNYWMNWVRQSPEKGLEWVAQIRLKSDNYATHYAESVKGRFTISRDDFKSSVYLQMNNLRAEDTGIYYCTVGTGGYWGQGTTLTVSS VL: DIVLTQSPASLAMSLGKRATISCRASESVSIVGTNVIHWFQQKPGQPPKLLIYHASNLETGVPARFSGSGSGTDFTLTIDPVEEDDVAIYHCLQSRKIPWTFGGGTKLEIKR ... 0.08 OD450

Challenge: What does the data say about its OD450? Entry: S009-F3.38.10 (antibody, human IgG1, kappa, V domains shown, Human-murine chimeric antibody: murine VH/VL on human IgG1 heavy and kappa light constant regions) VH: EVQLQQSGPVLVKPGASVKMSCEASGYIFTDYYMNWVKKSHGKSLEWIGVINPKNGVISHNQKFKGKATLTVDKSSNTAYMELSSLTSEDSAVYYCANYGSRFYAMDYWGQGTSVTVSS VL: DVVMTQTPLSLPVSLGDQASISCRSSQSLIHSDGNTYLQWYLQKSGQSPKLLIYKVSNRFSGVPDRFSGSGSGTDFTLKISRVETEDLGVYFCSQTTHVPFTFGSGTKLEIKR
Response given: 0.07 OD450
